target: human HIF-PHD2 (Homo sapiens, UniProt Q9GZT9); construct: purchased CrystalGenomics Ltd; assay: HIF-PHD inhibition assay (fluorescence polarization), human HIF-PHD2; format: biochemical; settings: 2-oxoglutaric acid 3.33 μmol/L
Sequence (Q9GZT9 2-426 limits assumed): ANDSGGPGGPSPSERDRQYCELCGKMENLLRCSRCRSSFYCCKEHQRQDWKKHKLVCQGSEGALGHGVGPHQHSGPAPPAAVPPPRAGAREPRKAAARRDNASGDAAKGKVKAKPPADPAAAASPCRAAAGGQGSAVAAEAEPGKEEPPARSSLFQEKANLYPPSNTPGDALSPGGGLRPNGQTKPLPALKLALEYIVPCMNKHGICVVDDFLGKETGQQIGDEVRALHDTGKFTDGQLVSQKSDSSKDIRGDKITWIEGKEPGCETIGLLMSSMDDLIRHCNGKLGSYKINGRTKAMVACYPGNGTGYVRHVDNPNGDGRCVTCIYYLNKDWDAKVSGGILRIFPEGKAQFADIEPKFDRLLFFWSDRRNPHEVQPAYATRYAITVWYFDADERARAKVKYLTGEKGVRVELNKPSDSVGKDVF
// classify: if (IC50 < 50 nM) Fulfilled else Not fulfilled

INPUT: Take the compound CC(C)C(c1cc(F)cc(F)c1)n1ncc2nc(-n3cc(C(=O)O)cn3)nc(O)c21 (single isomer, unassigned) [Example 361] and say whether its IC50 is less than 50 nM.
OUTPUT: Not fulfilled

INPUT: Take the compound CC1CCN(c2ccc(C(C)n3ncc4nc(-n5cc(C(=O)O)cn5)nc(O)c43)cc2)CC1 (racemic) [Example 425] and say whether its IC50 is less than 50 nM.
OUTPUT: Fulfilled

INPUT: Take the compound O=C(O)c1cnn(-c2nc(O)c3c(cnn3C(c3ccc(Cl)cc3)C3CC3)n2)c1 (stereo not drawn) [Example 364] and say whether its IC50 is less than 50 nM.
OUTPUT: Fulfilled

INPUT: Take the compound C[C@@H](c1cc(Cl)cc(C(F)(F)F)c1)n1ncc2nc(-n3cc(C(=O)O)cn3)nc(O)c21 [Example 269] and say whether its IC50 is less than 50 nM.
OUTPUT: Fulfilled

INPUT: Take the compound Cc1ccccc1[C@H](C)n1ncc2nc(-n3cc(C(=O)O)cn3)nc(O)c21 [Example 265] and say whether its IC50 is less than 50 nM.
OUTPUT: Not fulfilled

INPUT: Take the compound O=C(O)c1cnn(-c2nc(O)c3c(cnn3Cc3cccc(-c4ccccc4)c3F)n2)c1 [Example 52] and say whether its IC50 is less than 50 nM.
OUTPUT: Fulfilled

INPUT: Take the compound O=C(O)c1cnn(-c2nc(O)c3c(cnn3Cc3cccc(-c4ccccc4F)c3)n2)c1 [Example 46] and say whether its IC50 is less than 50 nM.
OUTPUT: Not fulfilled

INPUT: Take the compound C[C@@H](C1CCN(c2cccc(C(F)(F)F)c2)CC1)n1ncc2nc(-n3cc(C(=O)O)cn3)nc(O)c21 [Example 434] and say whether its IC50 is less than 50 nM.
OUTPUT: Fulfilled

INPUT: Take the compound CC(C)(C)[C@H]1CC[C@H](Cn2ncc3nc(-n4cc(C(=O)O)cn4)nc(O)c32)CC1 [Example 142] and say whether its IC50 is less than 50 nM.
OUTPUT: Fulfilled

INPUT: Take the compound O=C(O)c1cnn(-c2nc(O)c3c(cnn3CC3CCN(c4ccc(C(F)(F)F)cc4)CC3)n2)c1 [Example 170] and say whether its IC50 is less than 50 nM.
OUTPUT: Fulfilled

INPUT: Take the compound O=C(O)c1cnn(-c2nc(O)c3c(cnn3CCCOc3ccc(Cl)c(C(F)(F)F)c3)n2)c1 [Example 177] and say whether its IC50 is less than 50 nM.
OUTPUT: Fulfilled

INPUT: Take the compound C[C@@H](c1cccc(F)c1)n1ncc2nc(-n3cc(C(=O)O)cn3)nc(O)c21 [Example 254] and say whether its IC50 is less than 50 nM.
OUTPUT: Not fulfilled

INPUT: Take the compound C[C@H](C1CCCCC1)n1nc(F)c2nc(-n3cc(C(=O)O)cn3)nc(O)c21 [Example 469] and say whether its IC50 is less than 50 nM.
OUTPUT: Not fulfilled

INPUT: Take the compound C[C@H](c1ccc(C(F)(F)F)cc1)n1ncc2nc(-n3cc(C(=O)O)cn3)nc(O)c21 [Example 284] and say whether its IC50 is less than 50 nM.
OUTPUT: Not fulfilled

INPUT: Take the compound C[C@@H](C1CCN(c2ccc(Cl)cc2)CC1)n1ncc2nc(-n3cc(C(=O)O)cn3)nc(O)c21 [Example 432] and say whether its IC50 is less than 50 nM.
OUTPUT: Fulfilled

###

Structures can show the parent of a compound that is named as a salt.
I'd appreciate it if you could supply pIC50 values for the items below.
Kindly note that pIC50 refers to -log10 of the concentration in mol/L and answer with the value alone.

INPUT: Provide human HIF-PHD2 (Homo sapiens, UniProt Q9GZT9) pIC50 reading for O=C(O)c1cnn(-c2nc(O)c3c(n2)c(Cl)nn3CC2CCCC2)c1 .
OUTPUT: 7.36

INPUT: Provide human HIF-PHD2 (Homo sapiens, UniProt Q9GZT9) pIC50 reading for C[C@H](c1cc(F)cc(C(F)(F)F)c1)n1ncc2nc(-n3cc(C(=O)O)cn3)nc(O)c21 .
OUTPUT: 7.04

INPUT: Provide human HIF-PHD2 (Homo sapiens, UniProt Q9GZT9) pIC50 reading for Cc1cc(C)cc(C(C)n2ncc3nc(-n4cc(C(=O)O)cn4)nc(O)c32)c1 (single isomer, unassigned) .
OUTPUT: 7.24

INPUT: Provide human HIF-PHD2 (Homo sapiens, UniProt Q9GZT9) pIC50 reading for C[C@@H](c1ccc(F)cc1)n1nc(C2CC2)c2nc(-n3cc(C(=O)O)cn3)nc(O)c21 .
OUTPUT: 6.96

INPUT: Provide human HIF-PHD2 (Homo sapiens, UniProt Q9GZT9) pIC50 reading for C[C@H]1CC[C@H](Cn2ncc3nc(-n4cc(C(=O)O)cn4)nc(O)c32)CC1 .
OUTPUT: 7.52

INPUT: Provide human HIF-PHD2 (Homo sapiens, UniProt Q9GZT9) pIC50 reading for O=C(O)c1cnn(-c2nc(O)c3c(cnn3CC3CCN(Cc4ccc(F)cc4)CC3)n2)c1 [Example 2, hydrochloride] .
OUTPUT: 7.08

INPUT: Provide human HIF-PHD2 (Homo sapiens, UniProt Q9GZT9) pIC50 reading for Cc1nn(Cc2ccc3ccccc3c2)c2c(O)nc(-n3cc(C(=O)O)cn3)nc12 .
OUTPUT: 7.70

INPUT: Provide human HIF-PHD2 (Homo sapiens, UniProt Q9GZT9) pIC50 reading for CC[C@@H](c1cccc(Cl)c1)n1ncc2nc(-n3cc(C(=O)O)cn3)nc(O)c21 .
OUTPUT: 7.04

INPUT: Provide human HIF-PHD2 (Homo sapiens, UniProt Q9GZT9) pIC50 reading for CC1(C)CCC(n2nc(F)c3nc(-n4cc(C(=O)O)cn4)nc(O)c32)CC1 .
OUTPUT: 7.15

INPUT: Provide human HIF-PHD2 (Homo sapiens, UniProt Q9GZT9) pIC50 reading for C[C@@H](C1CCCCC1)n1ncc2nc(-n3cc(C(=O)O)cn3)nc(O)c21 .
OUTPUT: 7.82

INPUT: Provide human HIF-PHD2 (Homo sapiens, UniProt Q9GZT9) pIC50 reading for COc1cc(Cn2ncc3nc(-n4cc(C(=O)O)cn4)nc(O)c32)ccc1-c1c(F)cccc1F .
OUTPUT: 7.47

INPUT: Provide human HIF-PHD2 (Homo sapiens, UniProt Q9GZT9) pIC50 reading for O=C(O)c1cnn(-c2nc(O)c3c(n2)c(F)nn3Cc2ccc3ccccc3c2)c1 .
OUTPUT: 7.82

INPUT: Provide human HIF-PHD2 (Homo sapiens, UniProt Q9GZT9) pIC50 reading for Cc1cc(OCCCn2ncc3nc(-n4cc(C(=O)O)cn4)nc(O)c32)cc(C)c1Cl .
OUTPUT: 7.66

INPUT: Provide human HIF-PHD2 (Homo sapiens, UniProt Q9GZT9) pIC50 reading for CC[C@@H](c1ccc(Cl)c(Cl)c1)n1ncc2nc(-n3cc(C(=O)O)cn3)nc(O)c21 .
OUTPUT: 7.64

INPUT: Provide human HIF-PHD2 (Homo sapiens, UniProt Q9GZT9) pIC50 reading for O=C(O)c1cnn(-c2nc(O)c3c(n2)c(Cc2ccccc2)nn3CC2CCCCC2)c1 .
OUTPUT: 6.80

INPUT: Provide human HIF-PHD2 (Homo sapiens, UniProt Q9GZT9) pIC50 reading for O=C(O)c1cnn(-c2nc(O)c3nn(Cc4ccc(Cl)cc4F)cc3n2)c1 .
OUTPUT: 7.20

###

target: human HIF-PHD2 (Homo sapiens, UniProt Q9GZT9); construct: purchased CrystalGenomics Ltd; assay: HIF-PHD inhibition assay (fluorescence polarization), human HIF-PHD2; format: biochemical; conditions: 2-oxoglutaric acid 3.33 μmol/L
ASSAY ENDPOINT: IC50 (nM)
Respond with the bare value in nM.

INPUT: Report IC50, nothing else, for this compound: CCC(c1cc(F)cc(Cl)c1)n1ncc2nc(-n3cc(C(=O)O)cn3)nc(O)c21 (single isomer, unassigned) [Example 340]
OUTPUT: 16

INPUT: Report IC50, nothing else, for this compound: CCC(c1ccc(C)c(Cl)c1)n1ncc2nc(-n3cc(C(=O)O)cn3)nc(O)c21 (single isomer, unassigned)
OUTPUT: 67

INPUT: Report IC50, nothing else, for this compound: O=C(O)c1cnn(-c2nc(O)c3c(cnn3CCOc3cccc(C(F)(F)F)c3)n2)c1
OUTPUT: 59

INPUT: Report IC50, nothing else, for this compound: O=C(O)c1cnn(-c2nc(O)c3c(cnn3Cc3ccc4cc(F)ccc4c3)n2)c1
OUTPUT: 14
